The following compounds are listed with their measured Dmax values.
target: BRAF V600E (Homo sapiens, UniProt P15056, V600E); construct: expressed in transfected cells; assay: Cellular assay of target protein degradation, T-Rex 293 cells stably transfected with HA-BRAF_V600E (HA immunofluorescence, high content imaging); assay type: cell-based; conditions: maximum degradation observed, T-Rex 293 HA-BRAF V600E
Sequence (P15056 whole entry V600E): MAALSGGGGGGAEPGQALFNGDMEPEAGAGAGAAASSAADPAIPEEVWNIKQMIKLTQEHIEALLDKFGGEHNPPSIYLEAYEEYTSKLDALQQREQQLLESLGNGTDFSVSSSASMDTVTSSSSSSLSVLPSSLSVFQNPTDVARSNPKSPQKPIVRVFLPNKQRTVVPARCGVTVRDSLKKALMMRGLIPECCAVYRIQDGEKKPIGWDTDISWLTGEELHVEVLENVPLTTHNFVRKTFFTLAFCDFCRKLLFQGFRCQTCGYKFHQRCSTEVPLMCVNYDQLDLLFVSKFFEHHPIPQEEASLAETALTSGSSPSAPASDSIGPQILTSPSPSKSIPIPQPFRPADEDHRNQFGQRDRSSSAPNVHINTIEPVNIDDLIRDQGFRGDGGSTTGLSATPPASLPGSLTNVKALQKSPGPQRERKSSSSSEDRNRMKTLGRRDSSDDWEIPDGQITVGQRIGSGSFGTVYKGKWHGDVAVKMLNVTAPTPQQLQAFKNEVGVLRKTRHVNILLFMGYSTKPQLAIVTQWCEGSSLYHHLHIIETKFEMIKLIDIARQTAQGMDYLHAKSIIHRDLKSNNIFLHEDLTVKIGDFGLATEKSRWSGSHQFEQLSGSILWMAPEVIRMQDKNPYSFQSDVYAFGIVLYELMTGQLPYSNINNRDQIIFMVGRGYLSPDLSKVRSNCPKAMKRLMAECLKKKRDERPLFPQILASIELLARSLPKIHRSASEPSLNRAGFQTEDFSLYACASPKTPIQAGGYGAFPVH

Guide cases for Dmax, answers given:
>  <Compound>
O=C1CC[C@@H](N2Cc3cc(C4CCN(CC5CCN(c6ccc(-c7cnc8[nH]cc(C(=O)c9c(F)ccc(NS(=O)(=O)N%10CCC(F)(F)C%10)c9F)c8c7)cc6)CC5)CC4)ccc3C2=O)C(=O)N1

>  <Meas Value>
35 to 70%

$$$$
>  <Compound>
O=C1CCC(N2Cc3cc(N4CCC(CN5CC6(CCN(c7ccc(-c8cnc9[nH]cc(C(=O)c%10c(F)ccc(NS(=O)(=O)N%11CC[C@@H](F)C%11)c%10F)c9c8)cn7)C6)C5)CC4)ccc3C2=O)C(=O)N1 (stereo partly drawn)

>  <Meas Value>
35 to 70%

$$$$
>  <Compound>
O=C1CCC(N2C(=O)c3ccc(C4CCN(CC5CCN(c6ccc(-c7cnc8[nH]cc(C(=O)c9c(F)ccc(NS(=O)(=O)N%10CC[C@@H](F)C%10)c9F)c8c7)cc6)CC5)CC4)cc3C2=O)C(=O)N1 (stereo partly drawn)

>  <Meas Value>
< 35%

$$$$
>  <Compound>
CN(CCN1CCN(c2ccc3c(c2)CN(C2CCC(=O)NC2=O)C3=O)CC1)[C@H]1CC[C@H](Oc2ccc(-c3cnc4[nH]cc(C(=O)c5c(F)ccc(NS(=O)(=O)N6CC[C@@H](F)C6)c5F)c4c3)cc2)CC1 (stereo partly drawn)

>  <Meas Value>
35 to 70%

$$$$
>  <Compound>
CNc1cc(-c2cnc3[nH]cc(C(=O)c4c(F)ccc(NS(=O)(=O)N5CC[C@@H](F)C5)c4F)c3c2)ccc1N1CCC(CN2CCC(c3ccc4c(c3)CN([C@H]3CCC(=O)NC3=O)C4=O)CC2)CC1

>  <Meas Value>
35 to 70%

$$$$
>  <Compound>
O=C1CCC(N2Cc3cc(CCCN4CC5(C4)CN(c4ccc(-c6cnc7[nH]cc(C(=O)c8c(F)ccc(NS(=O)(=O)N9CC[C@@H](F)C9)c8F)c7c6)cc4F)C5)ccc3C2=O)C(=O)N1 (stereo partly drawn)

>  <Meas Value>
35 to 70%

$$$$
>  <Compound>
CCCS(=O)(=O)Nc1ccc(F)c(C(=O)c2c[nH]c3ncc(-c4ccc(N5CCC(CN6CCC(c7ccc8c(c7)CN([C@@H]7CCC(=O)NC7=O)C8=O)CC6)CC5)cc4)cc23)c1F

>  <Meas Value>
35 to 70%

$$$$
>  <Compound>
O=C1CCC(N2Cc3cc(N4CC(CN5CCC(C6(c7ccc(-c8cnc9[nH]cc(C(=O)c%10c(F)ccc(NS(=O)(=O)N%11CC[C@@H](F)C%11)c%10F)c9c8)cc7)CC6)CC5)C4)ccc3C2=O)C(=O)N1 (stereo partly drawn)

>  <Meas Value>
35 to 70%

$$$$

Let's switch to this compound now.
input: Can you share its Dmax? I mean this compound: "O=C1CC[C@@H](NC(=O)c2ccc(N3CCC(CN4CCN(c5ccc(-c6cnc7[nH]cc(C(=O)c8c(F)ccc(NS(=O)(=O)N9CC[C@@H](F)C9)c8F)c7c6)cc5)CC4)CC3)cc2F)C(=O)N1"
output: < 35%

---

molecular target: BRAF V600E (Homo sapiens, UniProt P15056, V600E); construct: expressed in transfected cells; assay: Cellular assay of target protein degradation, T-Rex 293 cells stably transfected with HA-BRAF_V600E (HA immunofluorescence, high content imaging); assay type: cell-based; settings: maximum degradation observed, T-Rex 293 HA-BRAF V600E
Below: a set of entries, each annotated with reported Dmax.

>  <Compound>
O=C1CCC(N2Cc3cc(N4CC5(CN(CC#Cc6ccc(-c7cnc8[nH]cc(C(=O)c9c(F)ccc(NS(=O)(=O)N%10CC[C@@H](F)C%10)c9F)c8c7)cc6)C5)C4)ccc3C2=O)C(=O)N1 (stereo partly drawn) [Compound 42]

>  <Meas Value>
35 to 70%

$$$$

input: Could you share which Dmax value was measured for O=C1CC[C@H](N2Cc3cc(C[C@@H](O)CN4CC5(C4)CN(c4ccc(-c6cnc7[nH]cc(C(=O)c8c(F)ccc(NS(=O)(=O)N9CC[C@@H](F)C9)c8F)c7c6)cc4)C5)ccc3C2=O)C(=O)N1 [Compound 128] ?
output: 35 to 70%

---

molecular target: BRAF G466V (Homo sapiens, UniProt P15056, G466V); construct: expressed in transfected cells; test: Cellular assay of target protein degradation, T-Rex 293 cells stably transfected with HA-BRAF G466V (HA immunofluorescence, high content imaging); type: cell-based; conditions: read-out: BRaf G466V DC50; half maximal degradation, T-Rex 293 HA-BRAF G466V
Sequence (P15056 whole entry G466V): as the sequence (P15056 whole entry V600E) above, with G466V, E600V counted along it
Endpoint Name: DC50

>  <Compound>
CC(C)(C1CCN(c2ccc(-c3cnc4[nH]cc(C(=O)c5c(F)ccc(NS(=O)(=O)N6CC[C@@H](F)C6)c5F)c4c3)cc2)CC1)N1CCN(c2ccc3c(c2)CN(C2CCC(=O)NC2=O)C3=O)CC1 (stereo partly shown) [Compound 97]

>  <Endpoint Name>
DC50

>  <Meas Value>
1 to 10 nM

$$$$
>  <Compound>
O=C1CCC(N2Cc3cc(N4CCC(CC5CCN(c6ccc(-c7cnc8[nH]cc(C(=O)c9c(F)ccc(NS(=O)(=O)N%10CC[C@@H](F)C%10)c9F)c8c7)cc6)CC5)CC4)ccc3C2=O)C(=O)N1 (stereo partly shown) [Compound 181]

>  <Endpoint Name>
DC50

>  <Meas Value>
10 to 30 nM

$$$$
>  <Compound>
O=C1CCC(N2Cc3cc(C4CCN(CC5CC6(C5)CN(c5ccc(-c7cnc8[nH]cc(C(=O)c9c(F)ccc(NS(=O)(=O)N%10CC[C@@H](F)C%10)c9F)c8c7)cc5F)C6)CC4)ccc3C2=O)C(=O)N1 (stereo partly shown) [Compound 319]

>  <Endpoint Name>
DC50

>  <Meas Value>
1 to 10 nM

$$$$
>  <Compound>
O=C1CCC(N2Cc3cc(C4CCN(CC5CCN(c6ccc(-c7cnc8[nH]cc(C(=O)c9c(F)ccc(NS(=O)(=O)N%10CC[C@@H](F)C%10)c9F)c8c7)cc6F)CC5)CC4)ccc3C2=O)C(=O)N1 (stereo partly shown) [Compound 36]

>  <Endpoint Name>
DC50

>  <Meas Value>
< 1 nM

$$$$
>  <Compound>
O=C1CCC(N2Cc3cc(N4CCC(CN5CCCN(c6ccc(-c7cnc8[nH]cc(C(=O)c9c(F)ccc(NS(=O)(=O)N%10CC[C@@H](F)C%10)c9F)c8c7)cc6)CC5)CC4)ccc3C2=O)C(=O)N1 (stereo partly shown) [Compound 322]

>  <Endpoint Name>
DC50

>  <Meas Value>
1 to 10 nM

$$$$
>  <Compound>
O=C1CCC(NC(=O)N2CCCc3c(C4CCN(CC5CCN(c6ccc(-c7cnc8[nH]cc(C(=O)c9c(F)ccc(NS(=O)(=O)N%10CC[C@@H](F)C%10)c9F)c8c7)cc6)CC5)CC4)ccnc32)C(=O)N1 (stereo partly shown) [Compound 364]

>  <Endpoint Name>
DC50

>  <Meas Value>
1 to 10 nM

$$$$

Consider the record given below.
input: Record request: DC50 value, item CC(C)(C1CCN(c2ccc(-c3cnc4[nH]cc(C(=O)c5c(F)ccc(NS(=O)(=O)N6CC[C@@H](F)C6)c5F)c4c3)cc2)CC1)N1CC2(CN(c3ccc4c(c3)CN(C3CCC(=O)NC3=O)C4=O)C2)C1 (stereo partly shown) [Compound 60]
output: 1 to 10 nM

---

biological target: BRAF G466V (Homo sapiens, UniProt P15056, G466V); construct: expressed in transfected cells; experiment: Cellular assay of target protein degradation, T-Rex 293 cells stably transfected with HA-BRAF G466V (HA immunofluorescence, high content imaging); assay type: cell-based; conditions: maximum degradation observed, T-Rex 293 HA-BRAF G466V
Endpoint Name: Dmax

>  <Molecule>
O=C1CCC(N2Cc3cc(CCCCCN4CCC(c5ccc(-c6cnc7[nH]cc(C(=O)c8c(F)ccc(NS(=O)(=O)N9CC[C@@H](F)C9)c8F)c7c6)cc5)CC4)ccc3C2=O)C(=O)N1 (stereo partly drawn)

>  <Dmax>
35 to 70%

$$$$
>  <Molecule>
N#Cc1cc(-c2cnc3[nH]cc(C(=O)c4c(F)ccc(NS(=O)(=O)N5CC[C@@H](F)C5)c4F)c3c2)cc(C#N)c1N1CCC(CN2CCC(c3ccc4c(c3)CN([C@H]3CCC(=O)NC3=O)C4=O)CC2)CC1

>  <Dmax>
35 to 70%

$$$$
>  <Molecule>
O=C1CCC(N2Cc3cc(C4CCN(C[C@H]5CCN(c6ccc(-c7cnc8[nH]cc(C(=O)c9c(F)ccc(NS(=O)(=O)N%10CC[C@@H](F)C%10)c9F)c8c7)cc6)C[C@H]5F)CC4)ccc3C2=O)C(=O)N1 (stereo partly drawn)

>  <Dmax>
> 70%

$$$$

input: For "O=C1CC[C@H](N2Cc3cc(CCCCN4CC5(C4)CN(c4ccc(-c6cnc7[nH]cc(C(=O)c8c(F)ccc(NS(=O)(=O)N9CC[C@@H](F)C9)c8F)c7c6)cc4)C5)ccc3C2=O)C(=O)N1" , what is its reported Dmax?
output: 35 to 70%

input: Same thing, different molecule: "COc1cc(N2CCC(CN3CCN(c4ccc(-c5cnc6[nH]cc(C(=O)c7c(F)ccc(NS(=O)(=O)N8CC[C@@H](F)C8)c7F)c6c5)cc4)CC3)CC2)ccc1C(=O)N[C@H]1CCC(=O)NC1=O"
output: > 70%

input: // same read-out, input: O=C1CCC(N2Cc3cc(N4CCC(CN5CC(C6CN(c7ccc(-c8cnc9[nH]cc(C(=O)c%10c(F)ccc(NS(=O)(=O)N%11CC[C@@H](F)C%11)c%10F)c9c8)cc7)C6)C5)CC4)ccc3C2=O)C(=O)N1 (stereo partly drawn)
output: > 70%

input: Okay, and COc1cc(CCCN2CC3(C2)CN(c2ccc(-c4cnc5[nH]cc(C(=O)c6c(F)ccc(NS(=O)(=O)N7CC[C@@H](F)C7)c6F)c5c4)cc2)C3)cc2c1C(=O)N(C1CCC(=O)NC1=O)C2 (stereo partly drawn) ?
output: 35 to 70%

input: Continue with "O=C1CC[C@H](N2Cc3cc(C4CCN(CC5CCN(c6ccc(-c7cnc8[nH]cc(C(=O)c9c(F)ccc(NS(=O)(=O)N%10CC(O)C%10)c9F)c8c7)cc6)CC5)CC4)ccc3C2=O)C(=O)N1"
output: > 70%

input: Request: "CCCS(=O)(=O)Nc1ccc(F)c(C(=O)c2c[nH]c3ncc(-c4ccc(N5CC6(CN(CC7CCN(c8cc9c(c(OC)c8)C(=O)N([C@H]8CCC(=O)NC8=O)C9)CC7)C6)C5)cc4)cc23)c1F"
output: > 70%
